Overview of recorded IC50 for various compounds
# system-under-test: CDK4 (Homo sapiens)
# Sequence (P11802 whole entry): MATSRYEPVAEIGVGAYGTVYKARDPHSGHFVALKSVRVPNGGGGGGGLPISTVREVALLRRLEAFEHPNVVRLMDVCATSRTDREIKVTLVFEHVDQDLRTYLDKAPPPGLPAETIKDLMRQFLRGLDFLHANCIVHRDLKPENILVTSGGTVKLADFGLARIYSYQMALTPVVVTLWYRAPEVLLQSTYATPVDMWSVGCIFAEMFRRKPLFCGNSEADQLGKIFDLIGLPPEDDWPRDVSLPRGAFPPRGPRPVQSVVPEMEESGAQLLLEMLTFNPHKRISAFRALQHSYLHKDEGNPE
# Sequence (P24385 whole entry partner): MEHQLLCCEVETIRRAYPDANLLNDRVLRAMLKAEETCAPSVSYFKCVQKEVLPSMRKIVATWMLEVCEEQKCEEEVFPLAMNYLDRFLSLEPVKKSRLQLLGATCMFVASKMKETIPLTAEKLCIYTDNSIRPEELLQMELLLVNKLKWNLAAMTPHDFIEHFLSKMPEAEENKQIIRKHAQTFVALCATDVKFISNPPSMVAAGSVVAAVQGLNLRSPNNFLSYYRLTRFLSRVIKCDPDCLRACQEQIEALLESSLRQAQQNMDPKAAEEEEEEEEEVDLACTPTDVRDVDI

{"compound": "CN1CCCN(c2ccc(NC(=O)c3n[nH]cc3Nc3ncnc4[nH]ccc34)cc2)CC1", "IC50 [nM]": 5.32}
{"compound": "O=C(Nc1ccc(N2CCOCC2)cc1)c1n[nH]cc1Nc1ncnc2[nH]ccc12", "IC50 [nM]": 10.6}
{"compound": "O=C(Nc1ccc(N2CCNCC2)cn1)c1n[nH]cc1Nc1ncnc2sc3c(c12)CCCCC3", "IC50 [nM]": 1.81}
{"compound": "CN1CCN(C(=O)c2ccc(NC(=O)c3n[nH]cc3Nc3ncnc4sccc34)cc2)CC1", "IC50 [nM]": 30.1}
{"compound": "CN1CCCN(c2ccc(NC(=O)c3n[nH]cc3Nc3ncnc4sccc34)cc2)CC1", "IC50 [nM]": 2.41}
{"compound": "O=C(Nc1ccc(N2CCNCC2)cn1)c1n[nH]cc1Nc1ncnc2[nH]ccc12", "IC50 [nM]": 23.1}
{"compound": "O=C(Nc1ccc(N2CCOCC2)cc1)c1n[nH]cc1Nc1ncnc2sc3c(c12)CCCC3", "IC50 [nM]": 24.9}
{"compound": "CN1CCCN(c2cccc(NC(=O)c3n[nH]cc3Nc3ncnc4[nH]ccc34)c2)CC1", "IC50 [nM]": 51}
{"compound": "O=C(Nc1ccc(N2CC3CC2CN3)cc1)c1n[nH]cc1Nc1ncnc2sc3c(c12)CCC3 (stereo not drawn)", "IC50 [nM]": 4.36}

###

# system-under-test: FLT3 (R595_E596insEY) (Homo sapiens, UniProt P36888, INS595EY)
# Sequence (P36888 with tags, fused parts or gaps INS595EY limits assumed): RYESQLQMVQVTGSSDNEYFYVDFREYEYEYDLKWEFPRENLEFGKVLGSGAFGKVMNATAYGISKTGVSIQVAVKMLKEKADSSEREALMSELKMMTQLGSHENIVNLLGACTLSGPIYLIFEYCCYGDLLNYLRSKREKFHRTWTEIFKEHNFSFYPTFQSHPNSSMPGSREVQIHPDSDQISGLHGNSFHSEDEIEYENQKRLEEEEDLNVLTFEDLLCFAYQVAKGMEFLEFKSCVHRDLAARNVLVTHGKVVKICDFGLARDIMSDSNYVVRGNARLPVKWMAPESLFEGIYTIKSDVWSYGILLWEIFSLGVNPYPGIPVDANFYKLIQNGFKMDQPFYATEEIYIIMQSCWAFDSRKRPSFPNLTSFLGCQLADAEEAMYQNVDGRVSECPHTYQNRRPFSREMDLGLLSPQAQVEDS
# test: Hot-Spot kinase profiling
# details: Table 5 kinase profiling

{"chemical-structure": "O=C(Nc1ccc(N2CCNCC2)cc1)c1n[nH]cc1Nc1ncnc2sc3c(c12)CCC3", "system-under-test": "FLT3 (R595_E596insEY) (Homo sapiens, UniProt P36888, INS595EY)", "IC50": "1.59 nM"}

###

Overview of recorded pIC50 for various compounds
# system-under-test: FLT3 (Homo sapiens, UniProt P36888)
# Construct: purchased Reaction Biology Corp
# test: FLT3 kinase activity assay (Hot-Spot)
# Assay type: biochemical
# details: 10 μM ATP; mean ± SD, three independent experiments
# Protocol: Activities of kinases were determined using Hot-SpotSM kinase assay which was performed by Reaction Biology Corp. (Malvern PA, USA) as described previously.
pIC50: −log10 of the molar value.
reported-endpoint: pIC50

{"chemical-structure": "CN1CCCN(c2cccc(NC(=O)c3n[nH]cc3Nc3ncnc4sccc34)c2)CC1", "system-under-test": "FLT3 (Homo sapiens, UniProt P36888)", "measured-value": 8.09}
{"chemical-structure": "O=C(NC1CCNCC1)c1n[nH]cc1Nc1ncnc2[nH]ccc12", "system-under-test": "FLT3 (Homo sapiens, UniProt P36888)", "measured-value": 7.13}
{"chemical-structure": "O=C(Nc1ccc(N2CCOCC2)cc1)c1n[nH]cc1Nc1ncnc2sc3c(c12)CCCC3", "system-under-test": "FLT3 (Homo sapiens, UniProt P36888)", "measured-value": 8.42}
{"chemical-structure": "CN1CCCN(c2cccc(NC(=O)c3n[nH]cc3Nc3ncnc4[nH]ccc34)c2)CC1", "system-under-test": "FLT3 (Homo sapiens, UniProt P36888)", "measured-value": 8.57}
{"chemical-structure": "O=C(Nc1ccncc1)c1n[nH]cc1Nc1ncnc2[nH]ccc12", "system-under-test": "FLT3 (Homo sapiens, UniProt P36888)", "measured-value": 8.23}
